- MEASURED ON: human recombinant MC5R (CHO-K1/Ga15 stable cell line, GenScript) (human, UniProt P33032 1-325)
- Sequence (P33032 whole entry): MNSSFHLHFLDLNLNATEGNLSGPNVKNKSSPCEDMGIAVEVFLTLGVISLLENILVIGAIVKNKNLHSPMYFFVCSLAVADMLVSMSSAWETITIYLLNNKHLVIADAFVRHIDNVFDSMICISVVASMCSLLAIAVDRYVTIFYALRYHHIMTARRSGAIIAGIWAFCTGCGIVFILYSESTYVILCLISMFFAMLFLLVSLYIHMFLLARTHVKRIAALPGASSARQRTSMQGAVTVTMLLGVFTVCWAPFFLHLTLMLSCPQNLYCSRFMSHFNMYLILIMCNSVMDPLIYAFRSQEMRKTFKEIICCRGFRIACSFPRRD
- PROTOCOL NOTES: cell-based or functional assay
Starred links: 1 amine or outer side, 2 acyl side, 3 side chain; linkers in the order of their positions; H or OH if unused. Positions of bridges follow the written chain, without caps; N, C: chain ends. Non-standard residues stand in square brackets, D forms with d. *: point of attachment. Hgln = homoglutamine, NC(=O)CCC[C@H](N[*:1])C(=O)[*:2]; Benzoyl(3,5-(OH)2) = O=C(c1cc(O)cc(O)c1)*; Lys(N3) = [N-]=[N+]=NCCCC[C@H](N)C(=O)O; dPhe(4-F) = N[C@H](Cc1ccc(F)cc1)C(=O)O; Nle = CCCC[C@H](N)C(=O)O; Pra = C#CC[C@H](N)C(=O)O
Recorded measurements of EC50(nM)-MC5R, one per entry

- BINDER: "{Benzoyl(3,5-(OH)2)}-[Nle][Lys(N3)]H[dPhe(4-F)]RW[Pra][Hgln]-NH2 (triazole 2-7; not fully specified; printed as HyBA-Nle-[Lys(N3)-His-Dphe(4-F)-Arg-Trp-Pra]-Hgln-NH2) [KR-071]"
  EC50(nM)-MC5R: "73.9 nM"
- BINDER: "Ac-[Nle][Lys(N3)]H[dPhe(4-F)]RW[Pra]-NH2 (triazole 2-7) [KR-049]"
  EC50(nM)-MC5R: "25.2 nM"
- BINDER: "{Benzoyl(3,5-(OH)2)}-[Nle][Lys(N3)]H[dF]RW[Pra]-NH2 (triazole 2-7; not fully specified; printed as HyBA-Nle-[Lys(N3)-His-DPhe-Arg-Trp-Pra]-NH2) [KR-073]"
  EC50(nM)-MC5R: "134 nM"
- BINDER: "Ac-[Nle][Lys(N3)]H[dF]RW[Pra]-NH2 (bridge 2-7; not fully specified (bridges); printed as Ac-Nle-[Lys(N3)-His-DPhe-Arg-Trp-Pra]-NH2) [KR-009]"
  EC50(nM)-MC5R: "140 nM"
- BINDER: "{Benzoyl(3,5-(OH)2)}-[Nle][Lys(N3)]H[dPhe(4-F)]RW[Pra]-NH2 (triazole 2-7; not fully specified; printed as HyBA-Nle-[Lys(N3)-His-Dphe(4-F)-Arg-Trp-Pra]-NH2) [KR-072]"
  EC50(nM)-MC5R: "78 nM"
